Read-out: Human Leukocyte Antigen - DR isotype (HLADR), HLA-DRA (gene 3122)
Test: BSK_BE3C_HLADR: BioMAP Diversity Plus: BE3C Assay for Human Leukocyte Antigen - DR isotype (HLADR) Biomarker Activity (AID 2283032)
Conditions: primary human bronchial epithelial cells; actives raise or lower the signal
The source made the active and inactive calls. The calls were made as follows: active = hit-call score of the fitted dose curve at least 0.9, where 1 is the maximum; inactive = score below 0.9.
Could you please pick one outcome from this set? TRUE = active, FALSE = inactive

Which outcome was assigned to "CCCCOC(=O)CCCCC(=O)OCCCC" in this test?
FALSE

Which outcome was assigned to "COc1ccc(C(=O)Nc2nc3ccccc3c(NCc3ccccc3)c2C#N)cc1" in this test?
FALSE

Which outcome was assigned to "CC(C)COC(=O)CCCCC(=O)OCC(C)C" in this test?
FALSE

Which outcome was assigned to "C/C=C/c1ccc(OC)cc1" in this test?
FALSE

Which outcome was assigned to "CSc1ccc(Oc2ccc(S(N)(=O)=O)cc2CN(C)C)cc1C" in this test?
FALSE

Which outcome was assigned to Cc1c(C)c2c(c(C)c1O)CCC(C)(COc1ccc(CC3SC(=O)NC3=O)cc1)O2 (configuration not stated) in this test?
TRUE

Which outcome was assigned to C#CC(O)C(CC)CCCC (configuration not stated) in this test?
FALSE

Which outcome was assigned to "O=C(O)CC(O)(CC(=O)O)C(=O)O" in this test?
FALSE

Which outcome was assigned to "OCC(O)CO" in this test?
FALSE

Which outcome was assigned to "CCc1nc(N)nc(N)c1-c1ccc(Cl)cc1" in this test?
FALSE

Which outcome was assigned to "CC(=O)[C@@]1(O)CC[C@H]2[C@@H]3CCC4=CC(=O)CC[C@]4(C)[C@H]3CC[C@@]21C" in this test?
FALSE

Which outcome was assigned to CCCCC(CC)COC(=O)CCCCCCCC(=O)OCC(CC)CCCC (configuration not stated) in this test?
FALSE

Which outcome was assigned to CC(C)NCC(O)c1ccc(O)c(O)c1 (configuration not stated) in this test?
FALSE

Which outcome was assigned to "CC(C)(O)c1ccc(CNC(=O)c2cccnc2Oc2ccc(F)cc2)cc1" in this test?
FALSE

Which outcome was assigned to "Cc1cn([C@H]2C=C[C@@H](CO)O2)c(=O)[nH]c1=O" in this test?
FALSE

Which outcome was assigned to CCC(C)N(C)C(=O)c1cc2ccccc2c(-c2ccccc2Cl)n1 (configuration not stated) in this test?
FALSE

Which outcome was assigned to CCCCCCC(CCCCCCCCCCC(=O)OCC(COC(C)=O)OC(C)=O)OC(C)=O (configuration not stated) in this test?
TRUE

Which outcome was assigned to "C/C=C/C=C/C(=O)O" in this test?
FALSE

Which outcome was assigned to "Cc1ccc(-c2cc(C(F)(F)F)nn2-c2ccc(S(N)(=O)=O)cc2)cc1" in this test?
TRUE

Which outcome was assigned to "Cc1occc(=O)c1O" in this test?
FALSE

Which outcome was assigned to "c1ccc2occc2c1" in this test?
FALSE

Which outcome was assigned to "CCCCCCCC(=O)OC" in this test?
FALSE

Which outcome was assigned to "CC(C)c1cccc(C(C)C)c1NC(=O)NS(=O)(=O)c1cc(C(C)(C)O)co1" in this test?
FALSE

Which outcome was assigned to "C=CCCCCCCCCCCCC" in this test?
FALSE

Which outcome was assigned to "CC1=C(C)S(=O)(=O)CCS1(=O)=O" in this test?
FALSE

Which outcome was assigned to "CC(=O)OCC(COC(C)=O)OC(C)=O" in this test?
FALSE

Which outcome was assigned to "COC(=O)CCCC(=O)OC" in this test?
FALSE
